Data origin, for the record: patent US20090111801A1

molecular target: hα2C receptor (Homo sapiens, UniProt P18825); construct: expressed in transfected cells; host or cells: CHO cells, stably transfected; membrane preparation; experiment: Radioligand binding experiment for α2C-adrenoceptor ([3H]raulwolscine, CHO cell membranes); details: [3H]raulwolscine binding, read-out: h-α2C pIC50 (converted)
Sequence (P18825 whole entry): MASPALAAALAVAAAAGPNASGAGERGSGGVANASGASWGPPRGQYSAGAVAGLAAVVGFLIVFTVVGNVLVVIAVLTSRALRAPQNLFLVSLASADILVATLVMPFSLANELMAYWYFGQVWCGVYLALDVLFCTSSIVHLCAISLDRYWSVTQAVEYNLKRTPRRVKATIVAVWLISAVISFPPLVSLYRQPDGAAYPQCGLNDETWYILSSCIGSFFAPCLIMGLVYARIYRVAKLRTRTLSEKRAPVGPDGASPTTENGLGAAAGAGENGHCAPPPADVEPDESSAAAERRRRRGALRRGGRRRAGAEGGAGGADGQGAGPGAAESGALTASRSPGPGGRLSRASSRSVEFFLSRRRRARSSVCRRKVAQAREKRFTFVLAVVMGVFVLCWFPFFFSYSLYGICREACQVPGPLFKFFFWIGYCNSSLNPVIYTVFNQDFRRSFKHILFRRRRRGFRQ
result.type: IC50 (nM)

* CCCC(=O)N(CCCn1ccnc(NC2CCN(C/C(C)=C/c3ccccc3)CC2)c1=O)Cc1ccccc1 | 10
* C/C(=C\c1ccccc1)CN1CCC(Nc2nccn(Cc3ccc(CNC(=O)c4ccco4)cc3)c2=O)CC1 | 31.6
* C/C(=C\c1ccccc1)CN1CCC(Nc2nccn(CC(=O)N3CCN(Cc4ccccc4)CC3)c2=O)CC1 | 2
* C/C(=C\c1ccccc1)CN1CCC(Nc2nccn(CC(=O)N(C)CCc3ccccc3)c2=O)CC1 | 6.31
* C/C(=C\c1ccccc1)CN1CCC(Nc2nccn(-c3cccc(N4CCN(Cc5ccccc5)CC4)c3)c2=O)CC1 | 6.31
* COCCCNC(=O)Cn1ccnc(NC2CCN(C/C(C)=C/c3ccccc3)CC2)c1=O | 6.31
* C/C(=C\c1ccccc1)CN1CCC(Nc2nccn(-c3ccc(N4CCOCC4)cc3)c2=O)CC1 | 20
* C/C(=C\c1ccccc1)CN1CCC(Nc2nccn(Cc3ccc(OC(F)(F)F)cc3)c2=O)CC1 | 126
